targetOfAssay: Telomerase reverse transcriptase (Homo sapiens, UniProt O14746)
Sequence (O14746 whole entry): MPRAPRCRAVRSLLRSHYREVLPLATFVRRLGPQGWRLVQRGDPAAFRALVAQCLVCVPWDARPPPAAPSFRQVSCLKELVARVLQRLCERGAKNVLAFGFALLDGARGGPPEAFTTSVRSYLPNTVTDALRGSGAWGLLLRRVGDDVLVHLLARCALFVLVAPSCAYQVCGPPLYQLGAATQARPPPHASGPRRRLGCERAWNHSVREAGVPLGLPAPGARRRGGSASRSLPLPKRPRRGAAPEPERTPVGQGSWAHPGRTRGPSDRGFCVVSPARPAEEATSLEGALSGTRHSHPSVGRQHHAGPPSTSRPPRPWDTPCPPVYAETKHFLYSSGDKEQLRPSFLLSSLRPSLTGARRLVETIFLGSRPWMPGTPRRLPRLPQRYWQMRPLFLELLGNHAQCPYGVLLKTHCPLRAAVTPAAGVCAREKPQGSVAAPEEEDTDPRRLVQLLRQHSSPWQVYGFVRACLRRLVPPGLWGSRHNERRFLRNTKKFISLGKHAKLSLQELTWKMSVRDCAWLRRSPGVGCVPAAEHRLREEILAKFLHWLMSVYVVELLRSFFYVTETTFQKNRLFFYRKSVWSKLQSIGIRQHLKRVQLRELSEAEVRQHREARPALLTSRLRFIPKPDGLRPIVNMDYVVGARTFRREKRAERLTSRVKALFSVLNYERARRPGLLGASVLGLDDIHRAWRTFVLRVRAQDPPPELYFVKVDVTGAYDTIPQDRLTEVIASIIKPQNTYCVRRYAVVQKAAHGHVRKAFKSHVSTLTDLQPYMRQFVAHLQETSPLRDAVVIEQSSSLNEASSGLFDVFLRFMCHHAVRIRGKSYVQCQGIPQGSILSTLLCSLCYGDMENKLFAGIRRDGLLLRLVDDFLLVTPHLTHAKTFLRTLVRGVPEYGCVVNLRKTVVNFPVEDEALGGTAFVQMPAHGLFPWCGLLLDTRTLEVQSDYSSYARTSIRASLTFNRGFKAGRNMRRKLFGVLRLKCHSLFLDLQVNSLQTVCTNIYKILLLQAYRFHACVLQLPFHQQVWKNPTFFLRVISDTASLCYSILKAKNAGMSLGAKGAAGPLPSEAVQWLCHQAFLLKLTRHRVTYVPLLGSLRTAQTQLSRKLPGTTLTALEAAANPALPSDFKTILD
testMethodNotes: Inhibition of human telomerase by TRAP assay
Consider the following compounds; for each one, report its pEC50.
Quick note: pEC50 values are minus log10 of concentrations in mol/L.

Consider the compound Cc1cccc(CNc2c3ccc(NC(=O)CCN4CCCC4)cc3nc3cc(NC(=O)CCN4CCCC4)ccc23)c1 and give its recorded pEC50. 6.00

Consider the compound O=C(CCN1CCCC1)Nc1ccc2c(NCc3cc(C(F)(F)F)cc(C(F)(F)F)c3)c3ccc(NC(=O)CCN4CCCC4)cc3nc2c1 and give its recorded pEC50. 6.07

Consider the compound CN(C)c1ccc(Nc2c3ccc(NC(=O)CCN4CCCC4)cc3nc3cc(NC(=O)CCN4CCCC4)ccc23)cc1 and give its recorded pEC50. 6.92

Consider the compound COc1cc(CNc2c3ccc(NC(=O)CCN4CCCCC4)cc3nc3cc(NC(=O)CCN4CCCCC4)ccc23)cc(OC)c1 and give its recorded pEC50. 6.36

Consider the compound CN(C)c1ccc(Nc2c3ccc(NC(=O)CCN4CCCCC4)cc3nc3cc(NC(=O)CCN4CCCCC4)ccc23)cc1 and give its recorded pEC50. 6.44

Consider the compound O=C(CCN1CCCCC1)Nc1ccc2c(NCc3ccc(F)c(F)c3)c3ccc(NC(=O)CCN4CCCCC4)cc3nc2c1 and give its recorded pEC50. 6.06

Consider the compound O=C(CCN1CCCC1)Nc1ccc2c(NCc3cc(F)cc(C(F)(F)F)c3)c3ccc(NC(=O)CCN4CCCC4)cc3nc2c1 and give its recorded pEC50. 6.62

Consider the compound COc1cc(CNc2c3ccc(NC(=O)CCN4CCCC4)cc3nc3cc(NC(=O)CCN4CCCC4)ccc23)cc(OC)c1 and give its recorded pEC50. 6.46

Consider the compound Cc1cccc(CNc2c3ccc(NC(=O)CCN4CCCCC4)cc3nc3cc(NC(=O)CCN4CCCCC4)ccc23)c1 and give its recorded pEC50. 6.64

Consider the compound Cc1cccc(CNc2c3ccc(NC(=O)CCN4CCC(C)CC4)cc3nc3cc(NC(=O)CCN4CCC(C)CC4)ccc23)c1 and give its recorded pEC50. 6.41

Consider the compound O=C(CCN1CCCC1)Nc1ccc2c(NCc3ccc(F)c(F)c3)c3ccc(NC(=O)CCN4CCCC4)cc3nc2c1 and give its recorded pEC50. 7.52

From: ChEMBL document CHEMBL1139141
